# Tested on: UACC-257
# experimental protocol: NCI tumour cell line growth inhibition, 48 h
Active and inactive are the calls of the source. No stated cut-off is given here; in the data, active = GI50 up to about 1.1 µM and inactive = higher.
metric name: GI50

These solved cases illustrate the format of a correct answer.
molecule: O=C1O/C(=C\c2ccc(O)cc2)C(c2ccc(O)c(Cl)c2)=C1Cl
target or test system: UACC-257
metric name: GI50
result: 49.5 µM (inactive)
//
molecule: CN(C)/C=N/S(=O)(=O)c1nn2c(C=O)c(-c3ccccc3)nc2s1
target or test system: UACC-257
metric name: GI50
result: 24.2 µM (inactive)
//
molecule: O=c1[nH]cnc2c1ncn2[C@@H]1C[C@@H]1CO
target or test system: UACC-257
metric name: GI50
result: > 100 µM (inactive)
//
molecule: CCOC(=O)C(=CNc1ccc(N(C2=NCC(C)S2)c2ccc(F)c(Cl)c2)cc1)C(=O)OCC (stereo not given)
target or test system: UACC-257
metric name: GI50
result: 17.1 µM (inactive)

# context switch: different molecule, same GI50
[Q] What measured GI50 goes with Cc1ccc(N2Cc3c(ccc4ccccc34)OP2(=S)N2CCCC2)cc1 (stereo not given) ?
[A] > 100 µM (inactive)

* * *

# Test system: HL-60
# experimental protocol: NCI tumour cell line growth inhibition, 48 h
Activity calls are given as the source filed them. Cut-off read from the data, not from the text of the source: active = GI50 up to about 1.1 µM and inactive = higher. Peptide text beside a SMILES is read from it. * marks the point of attachment. Boc = CC(C)(C)OC(=O)*
Reported values of GI50 for individual entries

molecule: CCOC(=O)C(Cc1c2ccccc2cc2ccccc12)(NC(C)=O)C(=O)OCC
GI50: 34.4 µM (inactive)
//
molecule: CC(=O)Oc1ccccc1[C@H]1CC(=O)C[C@H](c2ccccc2OC(C)=O)C12C(=O)c1ccccc1C2=O
GI50: > 100 µM (inactive)

[Q] What measured GI50 goes with COC(=O)C(Cc1ccccc1)NC(=O)C(CS)NC(=O)OC(C)(C)C (stereo not drawn) (Boc-Cys-Phe-OMe; configuration not given here) ?
[A] 27.7 µM (inactive)

[Q] What do you have for COC1(C)C(=O)N2C1N(C(=O)OC(C)(C)C)CC2(C)C (centres undefined) ?
[A] > 100 µM (inactive)

* * *

# Tested on: OVCAR-3
# experimental protocol: NCI tumour cell line growth inhibition, 48 h
Active and inactive are the calls of the source. No stated cut-off is given here; in the data, active = GI50 up to about 1.1 µM and inactive = higher.
metric name: GI50

These solved cases illustrate the format of a correct answer.
molecule: Cc1ccc(C)n1-n1c(Cc2ccccc2)n[nH]c1=O
metric name: GI50
result: > 100 µM (inactive)
--
molecule: CN(C)/N=N/c1ccc(S(N)(=O)=O)cc1
metric name: GI50
result: > 100 µM (inactive)
--
molecule: CC(C)(C)c1cc(Br)c(O)c(CN(Cc2cc(C(C)(C)C)cc(Br)c2O)C2CCCCC2)c1
metric name: GI50
result: 11.9 µM (inactive)
--
molecule: O=[N+]([O-])c1ccc2c(c1)nc(Cc1ccc(Cl)cc1)n2C[C@@H]1CCCN2CCCCC12 (stereo partly specified)
metric name: GI50
result: 15.5 µM (inactive)
--
molecule: c1cc2c(cc1C1=NCCN1)c1cc(C3=NCCN3)ccc1n2CC1CCCCC1
metric name: GI50
result: 21.2 µM (inactive)

# context switch: different molecule, same GI50
[Q] What measured GI50 goes with O=C(OCCO)C1CC2CC1C1(C2)OCCO1 (stereo unspecified) ?
[A] > 100 µM (inactive)

* * *

Reported values of GI50 for individual entries
# Test system: XF498
# experimental protocol: NCI tumour cell line growth inhibition, 48 h
Calls of active or inactive are those of the source. No stated cut-off is given here; in the data, active = GI50 up to about 1.1 µM and inactive = higher.

These solved cases illustrate the format of a correct answer.
molecule: O=C1C(Cl)N(c2ccc([N+](=O)[O-])cc2)C1c1c[nH]c2ccccc12 (stereo not given)
GI50: > 100 µM (inactive)
//
molecule: COc1ccc(C[C@@H]2Cc3cc(OC)c(OC)cc3CN2C)cc1
GI50: 53.5 µM (inactive)
//
molecule: C[C@]12CCNC(=O)C=C1CC[C@@H]1C2CC[C@@]2(C)C1CC[C@@H]2OC(=O)COc1ccc(N(CCCl)CCCl)cc1 (stereo not given in full)
GI50: 1.35 µM (inactive)

[Q] What measured GI50 goes with C=C1C2=C(CCCC2)C(=O)OC12CCCCC2 ?
[A] 97.5 µM (inactive)

[Q] What do you have for O=[N+]([O-])c1ccc(C2CC(c3ccccc3Cl)=Nc3ccccc3[S+]2[O-])cc1 (stereo not given) ?
[A] 5.89 µM (inactive)

* * *

# Tested on: NCI-H522
# experimental protocol: NCI tumour cell line growth inhibition, 48 h
Calls of active or inactive are those of the source. Cut-off read from the data, not from the text of the source: active = GI50 up to about 1.1 µM and inactive = higher.
Write down the outcome that applies. Available outcomes: t = active, f = inactive

compound: CN(C)Cc1c(O)ccc2c1c1c(n2C)C(=O)c2ccccc2C1=O
assigned class: f
--
compound: O=C1OC(C2Cc3cc4c(cc3C2=O)CCC4)c2ccccc21 (stereo not given)
assigned class: f

[Q] Recorded test call requested for CC(=O)O[C@H]1CCc2c(cc(N)c3c2C(=O)C[C@]2(C)C([C@H](C)CCCC(C)C)CCC32C)C1(C)C (stereo not given in full)
[A] f

[Q] What do you have for CC1(C)OCC(CO)(Nc2nc(N3CC3)nc(N3CC3)n2)CO1 ?
[A] f

[Q] What do you have for c1ccc(-c2cnc(-c3ccc(-c4ncc(-c5ccccc5)o4)cc3)o2)cc1 ?
[A] f

[Q] What do you have for CS(=O)(=O)OCCN(CCOS(C)(=O)=O)c1ccc(/C=N/c2cccc(Cl)c2)cc1 ?
[A] t

[Q] What do you have for C=C1C(=O)OC2C1C(=O)C/C(C)=C/CCC1(C)OC21 (stereo not given) ?
[A] f

[Q] What do you have for O=c1c2cc(Br)ccc2nc(-c2ccccc2Cl)n1NCC1(O)OCC(O)C(O)C1O (stereo not given) ?
[A] f

[Q] What do you have for C=CCN(c1cc(OC)c(NC(C)=O)cc1[N+](=O)[O-])S(C)(=O)=O ?
[A] t

[Q] What do you have for c1ccc2c(NCCCCCCCCNc3cccc4ccccc34)cccc2c1 ?
[A] f

* * *

Reported values of GI50 for individual entries
# Test system: HL-60
# experimental protocol: NCI tumour cell line growth inhibition, 48 h
The source made the active and inactive calls. No stated cut-off is given here; in the data, active = GI50 up to about 1.1 µM and inactive = higher.

These solved cases illustrate the format of a correct answer.
compound: O=C1C(Cl)N(c2ccc([N+](=O)[O-])cc2)C1c1c[nH]c2ccccc12 (stereo not given)
GI50: 31 µM (inactive)
--
compound: CCCC(O)c1cn(-c2cccc(S(=O)(=O)O)c2)nn1 (stereo not given)
GI50: > 100 µM (inactive)
--
compound: CCSC12CC3c4cccc5c4C(CN5C(=O)c4ccccc4)CC3(O1)N(C)C2=O (stereo not given)
GI50: 22.7 µM (inactive)
--
compound: CC(C)/C(Cl)=N\OC(=O)Nc1cccc(F)c1
GI50: 1.96 µM (inactive)
--
compound: COc1c(C(=O)c2ccc([N+](=O)[O-])cc2)cc(C(C)(C)C)cc1C(C)(C)C
GI50: 13.9 µM (inactive)

[Q] What measured GI50 goes with CC(Nc1ncc2c(n1)-c1ccccc1OC2)C(=O)O (stereo not given) ?
[A] 6.89 µM (inactive)

[Q] What do you have for Cc1ccc(C2=CC(=O)c3ccccc3C2=O)n1-c1ccccc1 ?
[A] 32.8 µM (inactive)

[Q] What do you have for CC(C)C[C@H](NC(=O)CCc1ccccc1)B(O)O ?
[A] 2.15 µM (inactive)

[Q] What do you have for NC(=O)CC(Nc1ncc2c(n1)-c1ccccc1OC2)C(=O)O (stereo not given) ?
[A] 14.9 µM (inactive)

[Q] What do you have for CC1=CC[C@@]2(CO)[C@@H]([C@@H]1C)[C@H]1CC[C@@H]3[C@@]4(C)CC[C@H](O)C(C)(C)[C@@H]4CC[C@@]3(C)[C@]1(C)C[C@@H]2O ?
[A] 11.7 µM (inactive)

* * *

# System: OVCAR-5
# experimental protocol: NCI tumour cell line growth inhibition, 48 h
The source made the active and inactive calls. Rule as the data show it: active = GI50 up to about 1.1 µM and inactive = higher.
metric name: GI50

These solved cases illustrate the format of a correct answer.
compound: Clc1nc(Cl)c(-c2ccccc2)c(Cl)n1
target or test system: OVCAR-5
metric name: GI50
result: 4.61 µM (inactive)

compound: C[C@H]1ON2CCC[C@@H]2[C@@H]1C(=O)N1C2CC3CCC2(CS1(=O)=O)C3(C)C (stereo not given in full)
target or test system: OVCAR-5
metric name: GI50
result: > 100 µM (inactive)

compound: CC(=O)Nc1ccc2c(C)c3c(nc2n1)[nH]c1ccccc13
target or test system: OVCAR-5
metric name: GI50
result: 51.4 µM (inactive)

compound: CC(=O)Oc1ccccc1[C@H]1CC(=O)C[C@H](c2ccccc2OC(C)=O)C12C(=O)c1ccccc1C2=O
target or test system: OVCAR-5
metric name: GI50
result: 44.2 µM (inactive)

# context switch: different compound, same GI50
[Q] Which measured GI50 belongs to N#CC1=C(c2ccccc2)OC2(N)OC(c3ccccc3)=C(C#N)C12C#N (stereo not given) , tested on OVCAR-5?
[A] > 100 µM (inactive)
